meta.source: the MegaScale stability set (Tsuboyama et al. 2023)

Item-by-item account of folding stability dG
B1: EHEE_rd4_0726 (parent)
chain: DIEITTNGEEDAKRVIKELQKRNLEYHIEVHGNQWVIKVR

# Variants of: B1
# Protocol Description: folding stability dG (cDNA display proteolysis); higher = more stable
# Condition Details: PBS, room temperature
Give just the number in kcal/mol; leave the unit off.

Examples with their reported folding stability dG follow.
A12Q 0.813
A12V 1.74
Q34L 2.65
L19I 1.56
L24S 1.04
Q34W 2.32
E18G 1.69
E18P -0.054
N23W 1.51
K17W 2.36

Problem: Consider the variant `K38M` . State its measured folding stability dG.
Result: 2.16
